Each recorded value in this set is attributed to ChEMBL document CHEMBL1133947.

Test system: Staphylococcus aureus
Test: In vitro antibacterial activity against Staphylococcus aureus 503
Format: functional
I'd appreciate it if you could supply MIC values for the items below.

Qu. Value lookup for MIC; key = C[C@@H](O)[C@H]1C(=O)N2C(C(=O)O)=C(S[C@@H]3CN[C@H](CSc4nncn4C)C3)[C@H](C)[C@H]12
Ans. 0.025 µg/mL

Qu. Now give it for C[C@@H](O)[C@H]1C(=O)N2C(C(=O)O)=C(S[C@@H]3CN[C@H](CSc4ncccn4)C3)[C@H](C)[C@H]12 too.
Ans. 0.025 µg/mL

Qu. Now give it for C[C@@H](O)[C@H]1C(=O)N2C(C(=O)O)=C(S[C@@H]3CN[C@H](CSc4ncccc4O)C3)[C@H](C)[C@H]12 too.
Ans. 0.195 µg/mL

Qu. Now give it for CNC(=O)c1cccnc1SC[C@@H]1C[C@H](SC2=C(C(=O)O)N3C(=O)[C@H]([C@@H](C)O)[C@H]3[C@H]2C)CN1 too.
Ans. 0.025 µg/mL

Qu. Now give it for C[C@@H](O)[C@H]1C(=O)N2C(C(=O)O)=C(S[C@@H]3CN[C@H](C(=O)N(C)C)C3)[C@H](C)[C@H]12 too.
Ans. 0.098 µg/mL

Qu. Now give it for C[C@@H](O)[C@H]1C(=O)N2C(C(=O)O)=C(S[C@@H]3CN[C@H](CSc4cnns4)C3)[C@H](C)[C@H]12 too.
Ans. 0.013 µg/mL

Qu. Now give it for Cc1nnc(SC[C@@H]2C[C@H](SC3=C(C(=O)O)N4C(=O)[C@H]([C@@H](C)O)[C@H]4[C@H]3C)CN2)s1 too.
Ans. 0.007 µg/mL

Qu. Now give it for C[C@@H](O)[C@H]1C(=O)N2C(C(=O)O)=C(S[C@@H]3CN[C@H](CSc4nnnn4C)C3)[C@H](C)[C@H]12 too.
Ans. 0.025 µg/mL

Qu. Now give it for C[C@@H](O)[C@H]1C(=O)N2C(C(=O)O)=C(S[C@@H]3CN[C@H](CSc4nccc(C(F)(F)F)n4)C3)[C@H](C)[C@H]12 too.
Ans. 0.025 µg/mL

Qu. Now give it for Cc1ccnc(SC[C@@H]2C[C@H](SC3=C(C(=O)O)N4C(=O)[C@H]([C@@H](C)O)[C@H]4[C@H]3C)CN2)n1 too.
Ans. 0.025 µg/mL

###

Assay: Area under curve of compound after iv administration of 20 mg/kg dose in rat
Format: ADME, organism-based
Set-up: dose 20 mg/kg, route intravenous
Conditions: in vivo
READOUT LABEL: AUC

Qu. Value lookup for AUC; key = C[C@@H](O)[C@H]1C(=O)N2C(C(=O)O)=C(S[C@@H]3CN[C@H](CSc4cnns4)C3)[C@H](C)[C@H]12
Ans. 36900 ng·h/mL

###

Assay: Half life of compound after iv administration of 20 mg/kg dose in rat
Type: ADME, organism-based
Set-up: dose 20 mg/kg, route intravenous
Conditions: in vivo
I'd appreciate it if you could supply half-life values for the items below.
The response must be a number in min with no trailing unit.

Qu. Value lookup for half-life; key = C[C@@H](O)[C@H]1C(=O)N2C(C(=O)O)=C(S[C@@H]3CN[C@H](CSc4cnns4)C3)[C@H](C)[C@H]12
Ans. 43.1

Qu. Now give it for C[C@@H](O)[C@H]1C(=O)N2C(C(=O)O)=C(SCCNC=N)C[C@H]12.O too.
Ans. 3.46

Qu. Now give it for C[C@@H](O)[C@H]1C(=O)N2C(C(=O)O)=C(S[C@@H]3CN[C@H](CSc4nnnn4C)C3)[C@H](C)[C@H]12 too.
Ans. 11
